System: H4
protocol-notes: cells
Type: functional, cell-based
setup-conditions: Homo sapiens
Description: SANGER: Inhibition of human H4 cell growth in a cell viability assay.
pIC50: −log10 of the molar value.
measure-name: pIC50

The reported value for Cc1ccc(-n2nc(C(C)(C)C)cc2NC(=O)Nc2ccc(OCCN3CCOCC3)c3ccccc23)cc1 [DORAMAPIMOD] in terms of pIC50 is < 5.00

The reported value for `COc1ccc(-c2cc3nccn3c(Nc3ncccc3C(N)=O)n2)cc1OC` in terms of pIC50 is < 5.10

The reported value for CO[C@@H]1[C@H](N(C)C(=O)c2ccccc2)C[C@H]2O[C@]1(C)n1c3ccccc3c3c4c(c5c6ccccc6n2c5c31)C(=O)NC4 [MIDOSTAURIN] in terms of pIC50 is 6.86

* * *

System: RXF 393;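 note: growth inhibition of human RXF 393 cells, read out with a cell viability assay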
protocol-notes: cells
Assay type: functional, cell-based, Homo sapiens
setup-conditions: Homo sapiens, RXF 393
Description: SANGER: Inhibition of human RXF393 cell growth in a cell viability assay.
measure-name: IC50

The reported value for `COC(=O)[C@H](CCSC)NC(=O)c1ccc(NC[C@@H](N)CS)cc1-c1ccccc1` in terms of IC50 is > 1020 nM

The reported value for `OC[C@H](Cc1ccccc1)Nc1nc(Oc2ccc3c(c2)CCC3)nc2c1ncn2Cc1ccc(-c2ccccc2)cc1` in terms of IC50 is > 10200 nM

The reported value for `O=S(=O)(O)c1ccc2cc(/N=N/c3cc(S(=O)(=O)O)c4cccnc4c3O)ccc2c1` in terms of IC50 is > 16000 nM

The reported value for `C/C(=C\c1csc(C)n1)[C@@H]1C[C@@H]2O[C@]2(C)CCC[C@H](C)[C@H](O)[C@@H](C)C(=O)C(C)(C)[C@@H](O)CC(=O)O1` in terms of IC50 is 3.41 nM

* * *

Tested on: KP-4;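 note: human KP-4 cells, with growth inhibition read out through a cell viability assay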
protocol-notes: cells
Assay type: functional, cell-based
setup-conditions: Homo sapiens
Description: SANGER: Inhibition of human KP-4 cell growth in a cell viability assay.
measure-name: IC50 (nM)
The figure you give is taken to be in nM; do not add the unit.

Sample `CN(NC(=O)CC(=O)NN(C)C(=S)c1ccccc1)C(=S)c1ccccc1` , system: KP-4. Its IC50 is 2.17

Sample `NC(=O)Nc1cc(-c2cccc(F)c2)sc1C(=O)N[C@H]1CCCNC1` , system: KP-4. Its IC50 is 1460

* * *

I'd be grateful if you could share measured pIC50 for these entries.
System: COR-L279
protocol-notes: SANGER: Inhibition of human COR-L279 cell growth in a cell viability assay.
Type: functional, cell-based
setup-conditions: Homo sapiens, COR-L279
pIC50: −log10 of the molar value.

The reported value for Cc1ccc(C(=O)Nc2ccc(CN3CCN(C)CC3)c(C(F)(F)F)c2)cc1C#Cc1cnc2cccnn12 [PONATINIB] in terms of pIC50 is < 6.29

The reported value for `COc1ccc(N(C(=O)Oc2c(C)cccc2C)c2ccnc(Nc3ccc(N4CCN(C)CC4)cc3)n2)c(OC)c1` in terms of pIC50 is < 5.29

The reported value for C=CC(=O)N1CCCC(Nc2nc(Nc3ccc(N(C)C(=O)CC)cc3)nc3[nH]cnc23)C1 (stereo not drawn) in terms of pIC50 is < 4.99

* * *

Tested on: NCI-H1048
protocol-notes: cells
Type: functional, cell-based
setup-conditions: Homo sapiens
Description: SANGER: Inhibition of human NCI-H1048 cell growth in a cell viability assay.
measure-name: pIC50
Just the number, please; pIC50 means minus log10 of the concentration in mol/L.

The reported value for `O=C(NCCCNc1nc(Nc2cccc(NC(=O)N3CCCC3)c2)ncc1I)c1cccs1` in terms of pIC50 is 5.75

The reported value for `CN(NC(=O)CC(=O)NN(C)C(=S)c1ccccc1)C(=S)c1ccccc1` in terms of pIC50 is 7.74

The reported value for `CS(=O)(=O)N1CCN(Cc2cc3nc(-c4cccc5[nH]ncc45)nc(N4CCOCC4)c3s2)CC1` in terms of pIC50 is 5.68
